Where do the numbers come from? From the Biogen ADME set (Fang et al. 2023).

metric: intrinsic clearance, human liver microsomes (mL/min/kg)

CC(=O)N1CCc2cc(Nc3nccc(C(F)(F)F)n3)ccc21
130

[P] c1cc(CN2CCC(c3ccn[nH]3)CC2)ccn1
[Q] CN(Cc1nc2c(s1)CCCC2)c1cnccn1
Prompt line: Which gives the smaller intrinsic clearance, human liver microsomes number: P or Q ? Return value: the label identifying the chosen record.
Response line: P
(P: 5.91 mL/min/kg, Q: 131 mL/min/kg)

* * *

metric: MDR1-MDCK efflux ratio

O=c1c2ccncc2ncn1[C@H]1CCN(Cc2ccccc2)C1
0.442
Fc1ccc(NCc2cccc(OCCN3CCOCC3)c2)nc1
0.773
CCn1ncc(CN(C)C(=O)c2ccc(-c3nc(C)cc(C)n3)cc2)c1C
4.16
Cc1nccc(-c2cccc(NCC(=O)N(C)c3ccccc3)c2)n1
0.964
Cc1ccc(-c2ccc(N(C)CCO)nn2)c(-n2cccn2)c1
29.3
CNC(=O)Cc1nc(-c2cncc(C)c2)cs1
0.978
CC1(C)[C@H]2CC=C(CN3CCC4(CCC(=O)N4)CC3)[C@@H]1C2
0.825
CN(CCSc1ccc2nnc(C(F)F)n2n1)Cc1ccccc1
0.653

[A] O=C1c2ccccc2C(=O)N1CCNc1ccc(F)cc1
[B] C[C@@H](C(=O)N1CCCC1)N1CCC(n2c(=O)[nH]c3ccccc32)CC1
Prompt line: Field: entry with larger MDR1-MDCK efflux ratio (options A / B ). Return value: the label identifying the chosen record.
Response line: B
(B: 162, A: 0.43)

* * *

metric: intrinsic clearance, rat liver microsomes (mL/min/kg)

COCCNC(=O)c1ccnc(C2CCNCC2)c1
16.1
CCCc1nn(CCCN2CCCCC2)c(=O)o1
1600
O=C1N[C@@H]2CCN(C(=O)c3ccc(-c4ccccc4)cc3)[C@@H]2C(=O)N1c1ccc(F)cc1
29.7
O=c1[nH]c2ccccc2n1C1CCN(Cc2nc(-c3ccsc3)no2)CC1
263
Cc1cccc([C@H]2CN(C(=O)C3CCCC3)[C@@H]3CCN(CC4CC4)C[C@H]23)c1
2330
CN(C(=O)c1cncc(F)c1)c1cccc2ncccc12
134

[I] CCCCN(C)C(=O)c1cn(-c2ccc(C)c(C)c2)nn1
[II] N#Cc1ccnc(Nc2ccc(F)cc2)c1
[III] CCCCN1CCN(C(=O)c2cccc(-c3ccc(CO)cc3)c2)CC1
Prompt line: // ascending sort on recorded intrinsic clearance, rat liver microsomes To answer, arrange all of the labels according to the requested order.
Response line: II, III, I
(II: 185 mL/min/kg, III: 269 mL/min/kg, I: 530 mL/min/kg)

[a] CC(=O)Nc1ccc(C(=O)N2CCCCC2c2nc(N)ncc2-c2cccc(Cl)c2)cc1 (stereo not drawn)
[b] Nc1ccnc2ccc(Oc3ccccc3)cc12
[c] O=c1c2c(nc3ccccn13)CCN(S(=O)(=O)C1CCCCC1)C2
Prompt line: Parameters: sort_field (intrinsic clearance, rat liver microsomes), sort_dir (desc). To answer, arrange all of the labels according to the requested order.
Response line: b, c, a
(b: 2330 mL/min/kg, c: 1100 mL/min/kg, a: 651 mL/min/kg)

[1] Cc1cc(Cl)c(OCCCN2CCNCC2)c(Br)c1
[2] Fc1ccccc1CN1CCN(c2ncccn2)CC1
Prompt line: Field: entry with larger intrinsic clearance, rat liver microsomes (options 1 / 2 ). Return value: the label identifying the chosen record.
Response line: 2

[A] CC(C)C[C@H](C(=O)N[C@H](C(=O)OC1CCCC1)c1ccccc1)[C@@H](O)C(=O)NO
[B] c1cnc(NCCc2cccc3cccnc23)nc1
Prompt line: Field: entry with larger intrinsic clearance, rat liver microsomes (options A / B ). Return value: the label identifying the chosen record.
Response line: B
(B: 879 mL/min/kg, A: 598 mL/min/kg)

[P] CN(Cc1ccccc1)C1(C(=O)N2CCNC(=O)CC2)Cc2ccccc2C1
[Q] CS(=O)(=O)N1CCN(Cc2cc3c(cc2O)OCO3)CC1
[R] Cc1nc(N(C)C)nc(C)c1NC(=O)C1CCCCC1
Prompt line: Parameters: sort_field (intrinsic clearance, rat liver microsomes), sort_dir (desc). To answer, arrange all of the labels according to the requested order.
Response line: P, Q, R

[1] CCc1nnc(NC(=O)c2ccc3cc(OC)ccc3n2)s1
[2] CC(=O)N[C@H]1CCN(C(=O)N[C@H](C)C(c2ccccc2)c2ccccc2)C1
Prompt line: Field: entry with larger intrinsic clearance, rat liver microsomes (options 1 / 2 ). Return value: the label identifying the chosen record.
Response line: 2
